- System: HCC 2998
- TEST: NCI tumour cell line growth inhibition, 48 h
Active and inactive are the calls of the source. Cut-off read from the data, not from the text of the source: active = GI50 up to about 1.1 µM and inactive = higher.
Provide the recorded GI50 for the entries that follow.

Recorded result, Cc1cc2nnn(C3CCCO3)c2cc1C (stereo unspecified) , GI50: > 100 µM (inactive)

Recorded result, COc1cccc(/C=C2/S/C(=N/Nc3nc(C)c(C(C)=O)s3)NC2=O)c1O , GI50: 35.6 µM (inactive)

Recorded result, CN(C)N1C(=O)C(=O)N(c2cccc3ccccc23)C1=O , GI50: > 10 µM (inactive)

Recorded result, Cc1c2cc[n+](C)cc2c(C)c2c1[nH]c1ccccc12 , GI50: 2.28 µM (inactive)

Recorded result, CCOC(=O)/C(C#N)=C1/Sc2c(ncn(/N=C/c3ccc(OC)cc3)c2=O)N1c1ccccc1 , GI50: > 100 µM (inactive)

Recorded result, COc1cccc(CCCNC(=O)Cc2cc(OC)c(OC)cc2CO)c1 , GI50: > 100 µM (inactive)

Recorded result, Cc1ccc(S(=O)(=O)OCCOCCOCCOCCOCCOS(=O)(=O)c2ccc(C)cc2)cc1 , GI50: 41.6 µM (inactive)

Recorded result, COC(=O)C1C(O)CCC2CN3CCc4c([nH]c5ccccc45)C3CC21 (stereo unspecified) , GI50: 59.4 µM (inactive)

Recorded result, CC(=O)OCC1OC(n2c3c(c(-c4ccc(Cl)cc4)c(C#N)c2=S)CCCC3)C(OC(C)=O)C(OC(C)=O)C1OC(C)=O (stereo unspecified) , GI50: > 100 µM (inactive)

Recorded result, CC1(CO)COS(=O)OC1 (stereo unspecified) , GI50: > 100 µM (inactive)

Recorded result, COc1cc2c(cc1OC)C(=O)N1CCCC1C(=O)S2 (stereo unspecified) , GI50: > 100 µM (inactive)

====

Provide the recorded GI50 for the entries that follow.
- Tested on: BT-549
- TEST: NCI tumour cell line growth inhibition, 48 h
Active and inactive are the calls of the source. Rule as the data show it: active = GI50 up to about 1.1 µM and inactive = higher.

Recorded result, COc1cccc(/C=C2/S/C(=N/Nc3nc(C)c(C(C)=O)s3)NC2=O)c1O , GI50: 28.9 µM (inactive)

Recorded result, CCNC(=S)N/N=C/c1ccccn1 , GI50: 20.9 µM (inactive)

Recorded result, N=C(CC(=O)NOC(=O)c1ccccc1)NOC(=O)c1ccccc1 , GI50: 25.2 µM (inactive)

Recorded result, COc1cccc(CCCNC(=O)Cc2cc(OC)c(OC)cc2CO)c1 , GI50: > 100 µM (inactive)

Recorded result, Nn1c(S)nnc1COc1cccc(OCc2nnc(S)n2N)c1 , GI50: > 100 µM (inactive)

Recorded result, Cc1ccc2ccc(=O)oc2c1 , GI50: > 100 µM (inactive)

Recorded result, O=C(c1nc2ccc([N+](=O)[O-])cc2nc1O)C(O)c1ccc2c(c1)OCO2 (configuration not stated) , GI50: > 100 µM (inactive)

Recorded result, O=Cc1cc(O)ccc1Br , GI50: 11.6 µM (inactive)

Recorded result, Cc1c2cc[n+](C)cc2c(C)c2c1[nH]c1ccccc12 , GI50: 2.38 µM (inactive)

Recorded result, CCOP(=O)(OCC)/C(C#N)=C\c1cccc2ccccc12 , GI50: 51.9 µM (inactive)

Recorded result, CN1CCN(C(=O)CCC(=O)Nc2cc3c(c4ccccc24)-c2ccc4ccccc4c2C3)CC1 , GI50: 1.35 µM (inactive)

Recorded result, Cn1c(=O)c2[nH]c(/N=N/N3CCN(CCO)CC3)nc2n(C)c1=O , GI50: 18.8 µM (inactive)

====

- System: NCI-H522
- TEST: NCI tumour cell line growth inhibition, 48 h
Activity calls are given as the source filed them. Rule as the data show it: active = GI50 up to about 1.1 µM and inactive = higher.
Pick from active, inactive when you respond.

// query Recorded call for O=C(c1ccco1)N(C(=S)N1CCN(c2ccccc2)CC1)c1ccccc1 ?
// result inactive

// query Recorded call for Clc1ccc(CCn2ccc3ccccc32)c(Cl)c1 ?
// result inactive

// query Recorded call for CC1=NC(C)(C)N(O)C1(C)C ?
// result inactive

// query Recorded call for C[C@]12CC[C@H](O)C=C1CC[C@@H]1[C@@H]2CC[C@]2(C)C(=N/O)/C(=C/c3ccncc3)C[C@@H]12 ?
// result inactive

// query Recorded call for CN1CC[C@]2(C)c3cc(O)ccc3CC3CCCC1C32C (stereo partly specified) ?
// result inactive

// query Recorded call for OC1(CCc2ccccc2)COC(C(F)(F)F)(C(F)(F)F)C1 (stereo unspecified) ?
// result inactive

// query Recorded call for Cn1nc(-c2ccccc2)c(C(=O)/C=C/c2ccccc2)c(N2CCCC2)c1=O ?
// result inactive

// query Recorded call for c1ccc2c(c1)nnn2CNc1ccc(N2CCCCC2)cc1 ?
// result inactive

// query Recorded call for c1ccc(/N=C(\N2CCCCC2)N(CCN2CCCCC2)c2ccccc2)cc1 ?
// result active

// query Recorded call for COC(=O)C1CC(C(=O)OC)c2nc3cc(C)ccc3nc21 (stereo unspecified) ?
// result inactive

// query Recorded call for COC1OC2COC1(OC)C1OC(C)(C)OC21 (stereo unspecified) ?
// result inactive

====

- Test system: NCI-H522
- TEST: NCI tumour cell line growth inhibition, 48 h
Activity calls are given as the source filed them. No stated cut-off is given here; in the data, active = GI50 up to about 1.1 µM and inactive = higher.
Pick from 1 = active, 0 = inactive when you respond.

// query Recorded call for Cc1csc(CCC(N)C(=O)O)n1 (stereo not drawn) ?
// result 0

// query Recorded call for CCNC(=S)N/N=C/c1ccccn1 ?
// result 1

// query Recorded call for CCCCCCCCOC1C(O)C(O)C(O)C(O)C12CO2 (stereo not drawn) ?
// result 0

====

- Test system: NCI/ADR-RES
- TEST: NCI tumour cell line growth inhibition, 48 h
Active and inactive are the calls of the source. No stated cut-off is given here; in the data, active = GI50 up to about 1.1 µM and inactive = higher.
Provide the recorded GI50 for the entries that follow.

Recorded result, CCSC1=N/C(=C\c2ccco2)C(Cl)=N1 , GI50: > 100 µM (inactive)

Recorded result, O=c1c2c(oc3ccccc13)-c1ccccc1OC2 , GI50: 29.3 µM (inactive)

Recorded result, Cc1ccc2ccc(=O)oc2c1 , GI50: > 100 µM (inactive)

Recorded result, CC/N=C(\N)CSS(=O)(=O)O , GI50: > 100 µM (inactive)

Recorded result, Oc1cc(O)c2c(c1)O[C@H](c1cc(O)c(O)c(O)c1)[C@H](O)C2 [EPIGALLOCATECHIN] , GI50: 22.6 µM (inactive)

====

- System: NCI-H23
- TEST: NCI tumour cell line growth inhibition, 48 h
Activity calls are given as the source filed them. Cut-off read from the data, not from the text of the source: active = GI50 up to about 1.1 µM and inactive = higher.
Provide the recorded GI50 for the entries that follow.

Recorded result, N#C/C(N)=C(C#N)/N=C/Nc1ccc(N)cc1 , GI50: > 100 µM (inactive)

Recorded result, CC(C)N(C(=O)C1(O)c2ccccc2C=Cc2ccccc21)C(C)C , GI50: 17.6 µM (inactive)

Recorded result, COc1cc(=O)oc(/C=C/C=O)c1C , GI50: 21.9 µM (inactive)

Recorded result, CCOC(=O)CC[C@H](NC(=O)[C@H](N)Cc1ccc(N(CCCl)CCCl)cc1)C(=O)OCC , GI50: 3.08 µM (inactive)

Recorded result, Cc1csc(CCC(N)C(=O)O)n1 (stereo unspecified) , GI50: > 100 µM (inactive)

Recorded result, O=c1oc(-c2ccc(O)c(O)c2)cc2cccc(O)c12 , GI50: 16.1 µM (inactive)

Recorded result, Cc1nn(C(=O)Cc2ccccc2)c2c1C(c1ccc(O)cc1O)SC(=N)N2 (stereo unspecified) , GI50: > 100 µM (inactive)

Recorded result, O=C(NC1CCCCC1)NC12CC3CC(CC(F)(C3)C1)C2 , GI50: > 100 µM (inactive)

Recorded result, Cc1c2c(cc3c1[nH]c1ccccc13)C(c1ccc(Cl)cc1)=NCC2 , GI50: 0.368 µM (active)

Recorded result, COC(=O)CCC(C)[C@H]1CCC2C3C(C[C@H](OC(C)=O)[C@@]21C)[C@@]1(C)CCC2(C[C@H]1C[C@H]3OC(C)=O)OOC1(CCCC1)OO2 (stereo partly specified) , GI50: 9.18 µM (inactive)

Recorded result, CC(=O)OCC1OC(n2c(=O)[nH]c(=O)c3nn[nH]c32)C(OC(C)=O)C(OC(C)=O)C1OC(C)=O (stereo unspecified) , GI50: > 100 µM (inactive)

Recorded result, COc1ccc(C(=O)c2c3cc(OC)c(OC)c(OC)c3cc[n+]2C)cc1 , GI50: 23.7 µM (inactive)

Recorded result, CCCCCCC1NN(C(C)=O)C(CCCCCC)NN1C(C)=O (stereo unspecified) , GI50: > 100 µM (inactive)

Recorded result, O=C1Nc2c(Cl)cc(Cl)cc2/C1=N/NC(=O)c1ccccc1O , GI50: 18.2 µM (inactive)

Recorded result, COc1ccc(CC2COc3cc(O)cc(O)c3C2=O)cc1O (stereo unspecified) , GI50: 16.6 µM (inactive)

Recorded result, CCN(CC)CCn1c2ccccc2c(=O)c2c(OC)ccc(OC)c21 , GI50: > 100 µM (inactive)

Recorded result, Cc1ccc(C)c2c1NC(=O)/C2=N\Nc1ccccc1[N+](=O)[O-] , GI50: > 100 µM (inactive)

Recorded result, C[C@]12CC[C@H](O)C=C1CC[C@@H]1[C@@H]2CC[C@]2(C)C(=N/O)/C(=C/c3ccncc3)C[C@@H]12 , GI50: 16.1 µM (inactive)

Recorded result, N=C(N)NCC(N)C(=O)O (stereo unspecified) , GI50: > 100 µM (inactive)

Recorded result, COC(=O)C1=Cc2cc(OC)c(OC)cc2[C@H](c2ccc(OC)c(OC)c2)C1C(=O)OC (stereo partly specified) , GI50: > 100 µM (inactive)

Recorded result, CC1(C)[C@H](C(=O)O)N2C(=O)[C@@H](NS(=O)(=O)c3ccc([N+](=O)[O-])cc3)[C@H]2S1(=O)=O , GI50: > 100 µM (inactive)
